The measurements presented in this section are drawn from ChEMBL document CHEMBL3232897.

# Test system: Staphylococcus epidermidis
# experimental.details: Antibacterial activity against methicillin-resistant Staphylococcus epidermidis 488/11
# Type: functional
Listed here are molecules together with their documented MIC.
Quick note: give the figure in µg/mL, leave out the unit.

Here are 3 molecules together with their reported answers.
INSERT INTO measurements (structure_string, measured_metric, experimental_result) VALUES
  ('CC[C@@H](C(=O)[C@@H](C)[C@@H](O)[C@H](C)[C@@H]1O[C@@H]([C@@H](CC)C(=O)O)CC[C@@H]1C)[C@H]1O[C@]2(C=C[C@@H](O)[C@]3(CC[C@@](C)([C@H]4CC[C@](O)(CC)[C@H](C)O4)O3)O2)[C@H](C)C[C@@H]1C', 'MIC', 16),
  ('O=C(O)c1cn(C2CC2)c2cc(N3CCNCC3)c(F)cc2c1=O', 'MIC', 16),
  ('CC[C@@H](C(=O)[C@@H](C)[C@@H](O)[C@H](C)[C@@H]1O[C@@H]([C@@H](CC)C(=O)NCCS)CC[C@@H]1C)[C@H]1O[C@]2(C=C[C@@H](O)[C@]3(CC[C@@](C)([C@H]4CC[C@](O)(CC)[C@H](C)O4)O3)O2)[C@H](C)C[C@@H]1C', 'MIC', 32);

Exercise: # value lookup — system Staphylococcus epidermidis, readout MIC, item CC[C@@H](C(=O)[C@@H](C)[C@@H](O)[C@H](C)[C@@H]1O[C@@H]([C@@H](CC)C(=O)NCCOCCO)CC[C@@H]1C)[C@H]1O[C@]2(C=C[C@@H](O)[C@]3(CC[C@@](C)([C@H]4CC[C@](O)(CC)[C@H](C)O4)O3)O2)[C@H](C)C[C@@H]1C
Key: 64

Exercise: Now the molecule CC[C@@H](C(=O)[C@@H](C)[C@@H](O)[C@H](C)[C@@H]1O[C@@H]([C@@H](CC)C(=O)NCCCCN)CC[C@@H]1C)[C@H]1O[C@]2(C=C[C@@H](O)[C@]3(CC[C@@](C)([C@H]4CC[C@](O)(CC)[C@H](C)O4)O3)O2)[C@H](C)C[C@@H]1C
Key: 64

###

# Test system: BALB/3T3
# experimental.details: Antiproliferative activity mouse BALB/3T3 cells
# Type: cell-based
measured.metric: pIC50
FYI, pIC50 means -log10 of a concentration in mol per litre.

# count of solved cases: 8
INSERT INTO assay_data (compound, assayed_target, experimental_result) VALUES
  ('COc1cccc2c1C(=O)c1c(O)c3c(c(O)c1C2=O)C[C@@](O)(C(=O)CO)C[C@@H]3O[C@H]1C[C@H](N)[C@H](O)[C@H](C)O1 [DOXORUBICIN]', 'BALB/3T3', 6.30),
  ('C#CCNC(=O)[C@H](CC)[C@H]1CC[C@H](C)[C@H]([C@@H](C)[C@H](O)[C@H](C)C(=O)[C@H](CC)[C@H]2O[C@]3(C=C[C@@H](O)[C@]4(CC[C@@](C)([C@H]5CC[C@](O)(CC)[C@H](C)O5)O4)O3)[C@H](C)C[C@@H]2C)O1', 'BALB/3T3', 4.43),
  ('CC[C@@H](C(=O)[C@@H](C)[C@@H](O)[C@H](C)[C@@H]1O[C@@H]([C@@H](CC)C(=O)NCCCCNC(=O)[C@H](CC)[C@H]2CC[C@H](C)[C@H]([C@@H](C)[C@H](O)[C@H](C)C(=O)[C@H](CC)[C@H]3O[C@]4(C=C[C@@H](O)[C@]5(CC[C@@](C)([C@H]6CC[C@](O)(CC)[C@H](C)O6)O5)O4)[C@H](C)C[C@@H]3C)O2)CC[C@@H]1C)[C@H]1O[C@]2(C=C[C@@H](O)[C@]3(CC[C@@](C)([C@H]4CC[C@](O)(CC)[C@H](C)O4)O3)O2)[C@H](C)C[C@@H]1C', 'BALB/3T3', 4.70),
  ('CC[C@@H](C(=O)[C@@H](C)[C@@H](O)[C@H](C)[C@@H]1O[C@@H]([C@@H](CC)C(=O)NCCc2ccc(F)cc2)CC[C@@H]1C)[C@H]1O[C@]2(C=C[C@@H](O)[C@]3(CC[C@@](C)([C@H]4CC[C@](O)(CC)[C@H](C)O4)O3)O2)[C@H](C)C[C@@H]1C', 'BALB/3T3', 4.34),
  ('CC[C@@H](C(=O)[C@@H](C)[C@@H](O)[C@H](C)[C@@H]1O[C@@H]([C@@H](CC)C(=O)NCCc2ccc(O)c(O)c2)CC[C@@H]1C)[C@H]1O[C@]2(C=C[C@@H](O)[C@]3(CC[C@@](C)([C@H]4CC[C@](O)(CC)[C@H](C)O4)O3)O2)[C@H](C)C[C@@H]1C', 'BALB/3T3', 5.24),
  ('CC[C@@H](C(=O)[C@@H](C)[C@@H](O)[C@H](C)[C@@H]1O[C@@H]([C@@H](CC)C(=O)NCCOCCO)CC[C@@H]1C)[C@H]1O[C@]2(C=C[C@@H](O)[C@]3(CC[C@@](C)([C@H]4CC[C@](O)(CC)[C@H](C)O4)O3)O2)[C@H](C)C[C@@H]1C', 'BALB/3T3', 4.40),
  ('CC[C@@H](C(=O)[C@@H](C)[C@@H](O)[C@H](C)[C@@H]1O[C@@H]([C@@H](CC)C(=O)O)CC[C@@H]1C)[C@H]1O[C@]2(C=C[C@@H](O)[C@]3(CC[C@@](C)([C@H]4CC[C@](O)(CC)[C@H](C)O4)O3)O2)[C@H](C)C[C@@H]1C [SALINOMYCIN]', 'BALB/3T3', 4.59),
  ('CC[C@@H](C(=O)[C@@H](C)[C@@H](O)[C@H](C)[C@@H]1O[C@@H]([C@@H](CC)C(=O)NCCS)CC[C@@H]1C)[C@H]1O[C@]2(C=C[C@@H](O)[C@]3(CC[C@@](C)([C@H]4CC[C@](O)(CC)[C@H](C)O4)O3)O2)[C@H](C)C[C@@H]1C', 'BALB/3T3', 4.77);

Exercise: Given CC[C@@H](C(=O)[C@@H](C)[C@@H](O)[C@H](C)[C@@H]1O[C@@H]([C@@H](CC)C(=O)NCCCCN)CC[C@@H]1C)[C@H]1O[C@]2(C=C[C@@H](O)[C@]3(CC[C@@](C)([C@H]4CC[C@](O)(CC)[C@H](C)O4)O3)O2)[C@H](C)C[C@@H]1C , state its recorded pIC50.
Key: 4.45

Exercise: Entry CC[C@@H](C(=O)[C@@H](C)[C@@H](O)[C@H](C)[C@@H]1O[C@@H]([C@@H](CC)C(=O)Nc2ccc(NC(=O)[C@H](CC)[C@H]3CC[C@H](C)[C@H]([C@@H](C)[C@H](O)[C@H](C)C(=O)[C@H](CC)[C@H]4O[C@]5(C=C[C@@H](O)[C@]6(CC[C@@](C)([C@H]7CC[C@](O)(CC)[C@H](C)O7)O6)O5)[C@H](C)C[C@@H]4C)O3)cc2)CC[C@@H]1C)[C@H]1O[C@]2(C=C[C@@H](O)[C@]3(CC[C@@](C)([C@H]4CC[C@](O)(CC)[C@H](C)O4)O3)O2)[C@H](C)C[C@@H]1C please
Key: 4.69

Exercise: Let us now turn to CC[C@@H](C(=O)[C@@H](C)[C@@H](O)[C@H](C)[C@@H]1O[C@@H]([C@@H](CC)C(=O)NCC2COCCOCCOCCOCCO2)CC[C@@H]1C)[C@H]1O[C@]2(C=C[C@@H](O)[C@]3(CC[C@@](C)([C@H]4CC[C@](O)(CC)[C@H](C)O4)O3)O2)[C@H](C)C[C@@H]1C (some centres not stated)
Key: 4.50

Exercise: Entry CC[C@@H](C(=O)[C@@H](C)[C@@H](O)[C@H](C)[C@@H]1O[C@@H]([C@@H](CC)C(=O)NCCc2c[nH]cn2)CC[C@@H]1C)[C@H]1O[C@]2(C=C[C@@H](O)[C@]3(CC[C@@](C)([C@H]4CC[C@](O)(CC)[C@H](C)O4)O3)O2)[C@H](C)C[C@@H]1C please
Key: 4.46

###

# Test system: LoVo
# experimental.details: Antiproliferative activity against human LoVo cells
# Assay type: functional, cell-based
measured.metric: pIC50
The value called pIC50 is obtained by taking minus log10 of the concentration in mol/L.

Exercise: // lookup pIC50 for CC[C@@H](C(=O)[C@@H](C)[C@@H](O)[C@H](C)[C@@H]1O[C@@H]([C@@H](CC)C(=O)NCC2COCCOCCOCCOCCO2)CC[C@@H]1C)[C@H]1O[C@]2(C=C[C@@H](O)[C@]3(CC[C@@](C)([C@H]4CC[C@](O)(CC)[C@H](C)O4)O3)O2)[C@H](C)C[C@@H]1C (stereo partly specified)
Key: 4.62
